- TARGET: 5-HT2A receptors (Rattus norvegicus)
- Sequence (P14842 whole entry): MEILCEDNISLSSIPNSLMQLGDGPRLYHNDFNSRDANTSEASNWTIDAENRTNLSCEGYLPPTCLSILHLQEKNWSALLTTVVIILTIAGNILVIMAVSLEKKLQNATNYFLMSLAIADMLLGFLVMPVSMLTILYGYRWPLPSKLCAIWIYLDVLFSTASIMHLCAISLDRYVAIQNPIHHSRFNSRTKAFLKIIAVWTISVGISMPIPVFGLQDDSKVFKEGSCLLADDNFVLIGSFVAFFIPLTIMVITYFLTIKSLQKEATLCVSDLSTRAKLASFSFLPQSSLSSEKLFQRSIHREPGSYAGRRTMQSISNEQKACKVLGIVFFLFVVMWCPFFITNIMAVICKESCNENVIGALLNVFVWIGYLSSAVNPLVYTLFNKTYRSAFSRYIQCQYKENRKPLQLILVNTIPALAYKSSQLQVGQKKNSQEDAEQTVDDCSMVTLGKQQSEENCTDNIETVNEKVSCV
pKi: −log10 of the molar value.
I'd appreciate it if you could supply pKi values for the items below.

Please review the following examples before continuing.
* O=C1CSC(=O)N1CCCCNCCOc1ccccc1 | < 5.00
* O=C1C2CCCN2C(=O)N1CCCCNCCOc1ccccc1 (centres unmarked) | < 5.00
* O=C1C2CCCN2C(=O)N1CCCCNCc1nc2ccccc2[nH]1 (centres unmarked) | < 5.00

Record pKi per entry; entries follow.
1. O=C1C2SCCN2C(=O)N1CCCCNCC1CCc2ccccc2O1 (racemic)
2. COc1ccccc1CCCNCCCCN1C(=O)C2CCCN2C1=O (centres unmarked)
3. COc1ccccc1CCCNCCCN1C(=O)C2CCCN2C1=O (centres unmarked)
4. COc1ccccc1CCCCNCCCCN1C(=O)C2CCCN2C1=O (centres unmarked)
5. CN(C)CCCSc1ccccc1NC(=O)/C=C/c1ccccc1 [Cinanserine, reference compound]

1: < 6.00; 2: < 6.00; 3: < 5.00; 4: < 5.00; 5: 8.59
